# reported Kd; entries follow
# measuredTarget: DND1 K196A;NANOS3 ZF+C (human;human, UniProt Q8IYX4;P60323 1-230;55-173, K196A|)
# Sequence (Q8IYX4 1-230 K196A, chain 1 of 2): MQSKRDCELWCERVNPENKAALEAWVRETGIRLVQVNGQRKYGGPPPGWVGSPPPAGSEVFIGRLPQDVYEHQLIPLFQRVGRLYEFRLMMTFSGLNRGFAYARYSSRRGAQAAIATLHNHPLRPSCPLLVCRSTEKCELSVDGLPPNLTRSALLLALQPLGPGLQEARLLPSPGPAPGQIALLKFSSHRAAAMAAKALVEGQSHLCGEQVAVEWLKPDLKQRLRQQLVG
# Sequence (P60323 55-173, chain 2 of 2): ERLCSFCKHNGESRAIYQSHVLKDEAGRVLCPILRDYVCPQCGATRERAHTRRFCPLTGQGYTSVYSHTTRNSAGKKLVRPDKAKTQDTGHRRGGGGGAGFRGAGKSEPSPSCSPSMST
# assayRemarks: MST; DND1 titrated, 2 uM NANOS3 ZF+C; MST: 20 mM HEPES pH 7.4, 150 mM NaCl, 1 mM DTT, 0.05% Tween20 and 10 ug/mL yeast tRNA after 1:1 mixing, 5 nM Cy5-RNA, partner 2 uM final, 30 min at room temperature, measured at 25 C
# assayContext: protein: recombinant;recombinant; tags: His6-SUMO removed by Ulp1;His6-SUMO removed by Ulp1; N-terminal Ser (residue 54) from BamHI site; copies: 1;1; label: 5'-Cy5
Unit nM implied. Number only.

# binder, readoutType, quantitativeResult
data = [
    ("AUAUCAAUUU (ssRNA) [G3C]", "Kd", 310),
    ("AUAUUAAUUU (ssRNA) [G3U]", "Kd", 130),
]

Please report the measured Kd for AUAUAAAUUU (ssRNA) [G3A]
170
